# TARGET: human Cereblon WT GST-tagged protein (Homo sapiens)
# Construct: purchased CISBIO 64BDCRBNPEH
# Sequence (Q96SW2 whole entry): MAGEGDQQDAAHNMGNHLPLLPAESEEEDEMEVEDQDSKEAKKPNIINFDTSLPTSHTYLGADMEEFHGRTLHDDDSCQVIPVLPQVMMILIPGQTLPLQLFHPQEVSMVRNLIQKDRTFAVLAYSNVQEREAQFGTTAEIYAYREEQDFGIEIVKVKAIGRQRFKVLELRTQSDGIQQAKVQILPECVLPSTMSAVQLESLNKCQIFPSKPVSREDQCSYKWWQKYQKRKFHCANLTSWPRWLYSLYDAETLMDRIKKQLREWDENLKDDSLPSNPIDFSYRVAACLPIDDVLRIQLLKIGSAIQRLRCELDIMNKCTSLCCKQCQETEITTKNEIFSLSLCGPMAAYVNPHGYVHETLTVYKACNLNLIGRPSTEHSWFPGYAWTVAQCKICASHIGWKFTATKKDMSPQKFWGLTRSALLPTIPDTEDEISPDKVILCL
# TEST DESCRIPTION: CRBN binding, HTRF (CEREBLON BINDING kit)
# ASSAY CONDITIONS: Table II-2, CRBN binding screening, HTRF; at 0.5µM; read-out: Inhibition rate (%) at 0.5µM
MEASURED QUANTITY: inhibition at 0.5 µM

Q: Please give the measured inhibition at 0.5 µM for this molecule: COc1cc2nn(C3CCN(Cc4cc(C5CCC(=O)NC5=O)cnc4F)CC3)cc2cc1NC(=O)c1cccc(C(F)(F)F)c1 (stereo not drawn) [GT-07547]
A: 40 to 53%

Q: Likewise for Cn1cc(-c2cc(S(C)(=O)=O)ccc2OCc2ccc(C3CCC(=O)NC3=O)c(F)c2)c2cc[nH]c2c1=O (stereo not drawn) [GT-04640] ?
A: 60 to 80%

Q: Likewise for CC1(C)CCC(c2ccc(Cl)cc2)=C(CN2CCN(c3ccc(C(=O)NS(=O)(=O)c4ccc(N[C@H](CCN5CC6CCC5CN6Cc5cccc(NC6CCC(=O)NC6=O)c5)CSc5ccccc5)c(S(=O)(=O)C(F)(F)F)c4)cc3)CC2)C1 (stereo partly drawn) [GT-07882] ?
A: 30 to 40%

Q: Likewise for O=C1CCC(c2cnc(F)c(CN3CCC(n4cc(NC(=O)c5cnn6ccc(N7CCOCC7)nc56)c(C(F)F)n4)CC3)c2)C(=O)N1 (stereo not drawn) [GT-07767] ?
A: 40 to 53%

Q: Likewise for O=C1CCN(c2cnc(F)c(CN3CCN(c4ccc(-c5cc(F)c6c(c5)C(=O)N(C(CNc5nccs5)c5ncn7c5CCC7)C6)cc4)CC3)c2)C(=O)N1 (stereo not drawn) [GT-07760] ?
A: 40 to 53%

Q: Likewise for COc1cc2nn(C3CCN(Cc4cncc(C5CCC(=O)NC5=O)c4)CC3)cc2cc1NC(=O)c1cccc(C(F)(F)F)c1 (stereo not drawn) [GT-07419] ?
A: 20 to 30%

Q: Likewise for CNC(=O)c1ccccc1Nc1cc(Nc2ccc(N3CCN(Cc4ccc(C5CCC(=O)NC5=O)c(F)c4)CC3)cc2OC)ncc1C(F)(F)F (stereo not drawn) [GT-03717] ?
A: 30 to 40%

Q: Likewise for O=C1CCC(c2cnc(F)c(CN3CCC(n4cc(NC(=O)c5cnn6ccc(N7C[C@H]8C[C@@H]7CO8)nc56)c(C(F)F)n4)CC3)c2)C(=O)N1 (stereo partly drawn) [GT-07775] ?
A: 60 to 80%

Q: Likewise for [2H]C1([2H])N(CC[C@H](CSc2ccccc2)Nc2ccc(S(=O)(=O)NC(=O)c3ccc(N4CCN(CC5=C(c6ccc(Cl)cc6)CCC(C)(C)C5)CC4)cc3)cc2S(=O)(=O)C(F)(F)F)C([2H])([2H])C([2H])([2H])N(Cc2ccc(C3CCC(=O)NC3=O)cc2)C1([2H])[2H] (stereo partly drawn) [GT-07906] ?
A: 20 to 30%

Q: Likewise for C[C@@H]1CNC(=O)c2cc3ccc(C(=O)Nc4cnn(Cc5ccc(N6CCC(N7CCN(Cc8cncc(C9CCC(=O)NC9=O)c8)CC7)CC6)cc5)c4)nc3n21 (stereo partly drawn) [GT-07961] ?
A: 20 to 30%

Q: Likewise for CNC(=O)c1ccccc1Nc1cc(Nc2cc(C)c(N3CCN(Cc4ccc(C5CCC(=O)NC5=O)cc4)CC3)cc2OC(C)C)ncc1C(F)(F)F (stereo not drawn) [GT-03946] ?
A: 30 to 40%

Q: Likewise for C[C@@H]1CNC(=O)c2cc3ccc(C(=O)Nc4cnn(Cc5ccc(NCc6ccnc(N7CCC(=O)NC7=O)c6)cc5)c4)nc3n21 [GT-07795] ?
A: 30 to 40%

Q: Likewise for Cc1nc2c(F)cc(-c3nc(Nc4ccc(N5CCC(N6CCN(Cc7cncc(N8CCC(=O)NC8=O)c7)CC6)CC5)cn4)ncc3F)cc2n1C(C)C [GT-07488] ?
A: 53 to 60%

Q: Likewise for Cc1ccc(C(=O)Nc2ccc(N3CCC(N(C)Cc4ccc(C5CCC(=O)NC5=O)cc4)CC3)c(C(F)(F)F)c2)cc1C#Cc1cnc2cccnn12 (stereo not drawn) [GT-04106] ?
A: 40 to 53%

Q: Likewise for CC(C)(O)c1cc2nc(C3CCN(Cc4cc(C5CCC(=O)NC5=O)cnc4F)CC3)oc2cc1NC(=O)c1cccc(C(F)(F)F)n1 (stereo not drawn) [GT-07629] ?
A: 60 to 80%

Q: Likewise for Cn1cc(-c2cc(S(C)(=O)=O)ccc2OCc2ccc(N3CCC(=O)NC3=O)c(F)c2)c2cc[nH]c2c1=O [GT-04643] ?
A: 30 to 40%

Q: Likewise for COc1cc2nn(C3CCN(Cc4cncc(N5CCC(=O)NC5=O)c4)CC3)cc2cc1NC(=O)c1cccc(C(F)(F)F)n1 [GT-07533] ?
A: 10 to 20%

Q: Likewise for CN(Cc1ccc(C2CCC(=O)NC2=O)cc1)C1CCN(c2cccc(-c3cnc4ccc(N5CCC[C@@H]5c5cccc(F)c5)nn34)n2)CC1 (stereo partly drawn) [GT-03898] ?
A: 60 to 80%

Q: Likewise for O=C1CCN(c2ccc(CCl)nc2)C(=O)N1 [GT-06984] ?
A: 30 to 40%

Q: Likewise for CC(C)(O)c1cc2nc(C3CCN(Cc4cncc(N5CCC(=O)NC5=O)c4)CC3)oc2cc1NC(=O)c1cccc(C(F)(F)F)n1 [GT-07628] ?
A: 20 to 30%

Q: Likewise for COc1cc2nn(C3CCN(Cc4cncc(C5CCC(=O)NC5=O)c4)CC3)cc2cc1NC(=O)c1cccc(C(F)(F)F)n1 (stereo not drawn) [GT-07536] ?
A: 10 to 20%

Q: Likewise for CNC(=O)c1ccccc1Nc1cc(Nc2cc(C)c(C3CCN(Cc4ccc(N5CCC(=O)NC5=O)cn4)CC3)cc2OC(C)C)ncc1C(F)(F)F [GT-07669] ?
A: 10 to 20%

Q: Likewise for COc1cc(C(=O)NC2CCN(Cc3ccc(C4CCC(=O)NC4=O)c(F)c3)CC2)c(F)cc1Nc1ncc(C(F)(F)F)c(Oc2cccc3c2C(=O)N(C)C3)n1 (stereo not drawn) [GT-04035] ?
A: 40 to 53%

Q: Likewise for CN(c1nccnc1CNc1nc(Nc2ccc(N3CCN(Cc4cc(C5CCC(=O)NC5=O)cnc4F)CC3)cc2)ncc1C(F)(F)F)S(C)(=O)=O (stereo not drawn) [GT-07397] ?
A: 30 to 40%

The values you see were collected from patent EP4678638A1.
